# TEST_SYSTEM: T1, K63-Ub2 (Homo sapiens, UniProt P0CG47, K63R)
# T1 construct: Ub and K48- and K63-linked diUb and tetraUb were made as described; made in house
# ASSAY_PROCEDURE: Fluorescence anisotropy binding of fluorescent tUIM peptides to K63-Ub2
# CONDITION_DETAILS: fluorescence anisotropy, single-site fit, 25° C., pH 7.4

MOLECULE	U	Kd
Rap80 S101A: Rap80 tUIM peptide, linker REVNAQE (protein) peptide: PSSHHHHHHSSGLVPRGSHMTEEEQFALALKMSEQEAREVNAQEEEEEELLRKAIAESLNSCRPS	µM	11
Rap80 2 x linker: Rap80 tUIM peptide with 14-residue linker REVNSQEREVNSQE (protein) peptide: PSSHHHHHHSSGLVPRGSHMTEEEQFALALKMSEQEAREVNSQEREVNSQEEEEEELLRKAIAESLNSCRPS	µM	150
Rap80 S101E: Rap80 tUIM peptide, linker REVNEQE (protein) peptide: PSSHHHHHHSSGLVPRGSHMTEEEQFALALKMSEQEAREVNEQEEEEEELLRKAIAESLNSCRPS	µM	16
ataxin-3 7A linker: ataxin-3 UIMs joined by a 7-alanine linker (protein) peptide: PSSHHHHHHSSGLVPRGSHMDEDEEDLQRALALSRQEIAAAAAAAEDEEADLRRAIQLSMQGSSRNC	µM	17
